# assay-name: method code SF-HPLC, from DOI: 10.1023/a:1016462801968, PMID: 3334410
observed-property: logP

| smiles-input | observed-property | result |
| --- | --- | --- |
| CC(C)(C)C(=O)OCC(COC(=O)C(C)(C)C)OCn1cnc2c(=O)[nH]c(N)nc21 | logP | 1.71 |

* * *

Listed next: entries and their corresponding logP.
# assay-name: method code SF-AS, from Dallet, P.; Dubost, J.; Colleter, J.; Audry, E.; Creuzet, M. (1985). QSAR in a series of alpha-adrenolitic molecules: optimization of physicochemical parameters. Eur J Med Chem, 20(6)551-557.
observed-property: logP

| compound | numeric-result |
| --- | --- |
| CC(=O)Oc1ccc(OCCN(C)C)cc1C | 1.64 |
| Cc1cc(OCCNCC2CC(=O)c3ccccc3C2=O)c(C(C)C)cc1O (stereo not drawn) | 4.25 |
| Cc1cc(OCCN(C)C)c(C(C)C)cc1OS(=O)(=O)CC12CCC(CC1=O)C2(C)C (stereo not drawn) | 4.37 |

* * *

# assay-name: method code SF-AS, from DOI: 10.1016/0891-5849(92)90146-8, PMID: 1334029
# condition-details: pH 2.0
observed-property: logD

| smiles-input | observed-property | numeric-result |
| --- | --- | --- |
| CC(=O)C(=Cc1cc(O)c(O)c([N+](=O)[O-])c1)C(C)=O | logD | 1.21 |

* * *

# assay-name: method code SF-GLC, from DOI: 10.1002/etc.5620080910
observed-property: logP

| smiles-input | numeric-result |
| --- | --- |
| O=[N+]([O-])c1ccc(Cl)cc1Cl | 3.05 |

* * *

# assay-name: method code SF-RC, from DOI: 10.1002/ps.2780410303
# condition-details: pH 2.0
observed-property: logD

| molecule | result |
| --- | --- |
| CC(C)C1(C)N=C(c2ncc(S(C)(=O)=O)cc2C(=O)O)NC1=O (stereo unspecified) | -0.05 |

* * *

| smiles-input | logP |
| --- | --- |
| Clc1cc2c(oc3c(Cl)c(Cl)c(Cl)cc32)c(Cl)c1Cl | 6.6 |

* * *

# assay-name: method code SF, from DOI: 10.1016/0223-5234(94)90060-4
# condition-details: pH 7.4
observed-property: logD

| compound | result |
| --- | --- |
| CC(=O)Nc1ccn(C2CSC(COC(C)=O)O2)c(=O)n1 (stereo unspecified) | 0.88 |

* * *

# assay-name: method code SF-RC, from DOI: 10.2174/1874471011003010009, PMID: 20657759
# condition-details: pH 7.4

| smiles-input | logD |
| --- | --- |
| COc1ccc2cccc(N3CCN(CCNC(=O)c4ccc(F)cc4)CC3)c2c1 | 4.14 |

* * *

# assay-name: method code SF-GLC, from DOI: 10.1016/s0022-3565(25)30310-1, PMID: 1181405
# condition-details: pH 7.4

| smiles-input | logD |
| --- | --- |
| CCCCCOC(=O)NC | 1.96 |

* * *

# assay-name: method code SF-HPLC, from DOI: 10.1002/jps.2600830407, PMID: 8046599
# condition-details: pH 7.0

| molecule | logD |
| --- | --- |
| Cc1cn(C2CC(N=[N+]=[N-])C(COC(=O)CNC(=O)C34CC5CC(CC(C5)C3)C4)O2)c(=O)[nH]c1=O (stereo unspecified) | 2.1 |

* * *

# assay-name: method code SF, from Blakemore, C.; Brown, H.; Durant, J.; Emmett, C.; Ganellin, R.; Parsons, E.; Rasmussen, C. (1980). SK&F 92994: a new histamine H2-receptor antagonist. COMMUNICATIONS: Part II. Br. J. Pharmacol., …
# condition-details: pH 8.5
observed-property: logD

| smiles-input | observed-property | numeric-result |
| --- | --- | --- |
| Cc1[nH]cnc1CSCCNc1nc(=O)c(Cc2ccc3c(c2)OCO3)c[nH]1 | logD | 2.11 |

* * *

# assay-name: method code SF, from DOI: 10.1016/j.ecoenv.2008.09.011, PMID: 19560203
observed-property: logP

| smiles-input | numeric-result |
| --- | --- |
| CCOC(=O)C1=C[C@@H](OC(CC)CC)[C@H](NC(C)=O)[C@@H](N)C1 | 1.21 |

* * *

observed-property: logP

| smiles-input | numeric-result |
| --- | --- |
| C[C@]12N[C@H](Cc3ccccc31)c1ccccc12 | 1.79 |

* * *

# assay-name: method code SF-AS, from DOI: 10.1016/0003-9861(82)90097-2, PMID: 6284047
# condition-details: pH 7.4

| smiles-input | logD |
| --- | --- |
| CC1(C)CCC=[N+]1[O-] | -1.03 |

* * *

# logD per record follows
# assay-name: method code SF-AS, from DOI: 10.1016/j.bmc.2007.10.035, PMID: 18029186
# condition-details: pH 7.4

| smiles-input | logD |
| --- | --- |
| CN(CCO)C(=O)Cn1ccnc1[N+](=O)[O-] | -1.25 |
| CC(=O)OC[C@H]1O[C@H](OCCN(C)C(=O)Cn2ccnc2[N+](=O)[O-])[C@@H](OC(C)=O)[C@@H](OC(C)=O)[C@@H]1OC(C)=O | -1.16 |

* * *

# assay-name: method code SF-HPLC, from DOI: 10.1002/jps.10072, PMID: 11920751
# condition-details: pH 7.4
logD values, listed per item

| compound | logD |
| --- | --- |
| CC(=O)OCC(COC(C)=O)OCn1cnc2c(=O)[nH]c(N)nc21 | -0.78 |
| CCCC(=O)OCC(CO)OCn1cnc2c(=O)[nH]c(N)nc21 (stereo not drawn) | -0.3 |
| CCCCC(=O)OCC(COC(=O)CCCC)OCn1cnc2c(=O)[nH]c(N)nc21 | 0.83 |

* * *

observed-property: logP

| smiles-input | observed-property | result |
| --- | --- | --- |
| Cc1cc(=O)n(-c2ccc(Cl)cc2)cc1C(=O)O | logP | 4.1 |
| O=C(O)c1cc(C(F)(F)F)nc2ccccc12 | logP | 3.14 |
| O=C(O)c1snc(Cl)c1Cl | logP | 1.44 |

* * *

| smiles-input | logP |
| --- | --- |
| O=C(O)COc1ccc(Cl)cc1Cl | 2.71 |
| O=C(O)c1cccc(Oc2ccccc2)c1 | 3.6 |
| O=C(O)c1ccccc1C(=O)O | 0.87 |
| CC[C@H]1CCC[C@H](O[C@H]2CC[C@H](N(C)C)[C@@H](C)O2)[C@@H](C)C(=O)C2=C[C@@H]3[C@@H](C=C(C)[C@@H]4C[C@@H](O[C@@H]5O[C@@H](C)[C@H](OC)[C@@H](OC)[C@H]5OC)C[C@@H]34)[C@@H]2CC(=O)O1 | 4.92 |

* * *

# assay-name: method code SF-GLC, from DOI: 10.1016/s0380-1330(82)71969-0

| smiles-input | logP |
| --- | --- |
| Clc1cc(-c2ccccc2)c(Cl)c(Cl)c1Cl | 5.9 |

* * *

| molecule | logP |
| --- | --- |
| OC1(c2ccc(F)cc2)c2ccccc2C2=NCCN21 (centres undefined) | 0.95 |
| OC1(c2cccc(F)c2)c2ccccc2C2=NCCN21 (centres undefined) | 1.28 |
| OC1(c2ccc(I)cc2)c2ccccc2C2=NCCN21 (centres undefined) | 2.2 |
| OC1(c2ccc(Br)cc2)c2ccccc2C2=NCCN21 (centres undefined) | 1.9 |

* * *

We begin with a simple list: items and their reported logP.

| compound | logP |
| --- | --- |
| CCOP(=S)(NC(C)CC)Oc1cc(C)ccc1[N+](=O)[O-] (stereo not drawn) | 4.62 |
| CCCSP(=S)(OCC)Oc1ccc(SC)cc1 (stereo not drawn) | 4.9 |
| CCOP(=O)(NC(C)CC)Oc1cc(C)ccc1[N+](=O)[O-] (stereo not drawn) | 2.73 |

* * *

Recorded logP by entry
observed-property: logP

| smiles-input | observed-property | result |
| --- | --- | --- |
| COc1ccc(-c2oc3c(CC=C(C)C)c(O)cc(O)c3c(=O)c2O[C@@H]2O[C@@H](C)[C@H](O)[C@@H](O)[C@H]2O)cc1 | logP | 5.11 |
| COc1ccc(-c2oc3c(CC=C(C)C)c(O)cc(O)c3c(=O)c2O)cc1 | logP | 6.07 |

* * *

# assay-name: method code SF-AS, from DOI: 10.1023/a:1016392123137, PMID: 24272811
# condition-details: pH 9.0
observed-property: logD

| smiles-input | numeric-result |
| --- | --- |
| Cc1cccc(-c2cc3ccccc3c(N)n2)n1 | 3.18 |
| Cc1cccc2cc(-c3ccccn3)nc(N)c12 | 3.05 |
| Nc1nc(-c2ccccn2)cc2ccccc12 | 2.74 |
| c1ccc(-c2cc3ccccc3cn2)nc1 | 3.05 |

Ref: the SangsterLogP compilation
